- Test system: SF-539
- Test summary: NCI tumour cell line growth inhibition, 48 h
Activity calls are given as the source filed them. Cut-off read from the data, not from the text of the source: active = GI50 up to about 1.1 µM and inactive = higher.
Labels: Yes = active, No = inactive

Molecule	Class assignment
O=S(=O)(O)c1cc(/N=N/c2cc(S(=O)(=O)O)c3ccccc3c2O)ccc1/C=C/c1ccc(/N=N/c2cc(S(=O)(=O)O)c3ccccc3c2O)cc1S(=O)(=O)O	No
Cc1cccc(C)c1NC(=O)CCCC(=O)C1CC(=O)CCC1=O (stereo not given)	No
O=C(CSSCC(=O)OCCS(=O)(=O)Nc1ccc(Br)cc1)OCCS(=O)(=O)Nc1ccc(Br)cc1	No
CC(=O)OCC1(C)C(O)CCC2(C)C1CCC1CC3CC12CCC3(O)CO (stereo not given)	No
COc1ccc(C2=NNC(=O)OC2c2ccccc2)cc1 (stereo not given)	No
COc1ccc2nc3c4c(nccc4c2c1)-c1ncccc1C3=O	Yes
COc1ccccc1C(=O)N(Cc1ccccc1)c1ccc(Cl)c(C(=O)OC(C)C)c1	No
COC(=O)C(CC(=O)Nc1ccc(Cl)c(Cl)c1)C(=O)C(=O)Nc1ccc(Cl)c(Cl)c1 (stereo not given)	No
COc1cnnc2c(C)c(-c3ccccc3)nn12	No
Cn1c(=O)c(C(=O)NC23CC4CC(CC(C4)C2)C3)c(O)c2ccccc21	No
COc1ccccc1NC(=S)NNC(=O)c1cc(-c2ccccc2)nc2ccccc12	No
COc1ncnc2c1cnn2Cc1cn(COCC(O)CO)nn1 (stereo not given)	No
CS(=O)(=O)c1ccc(C2=C(c3ccccc3)C(=O)OC2)cc1 [ROFECOXIB]	No
CC(C)NCCC(O)c1cc2ccccc2o1 (stereo not given)	No
CCCCCCCCCCCCCC(=O)O[C@H]1CC[C@H](NC(=O)[C@H](OC)[C@H](O)[C@@H](O)[C@H](O)/C=C/C(C)C)C(=O)N(C)C1 [BENGAMIDE B]	Yes
Cc1nc2ccc(F)cc2c(Cl)c1CCCl	No
CCCCNS(=O)(=O)c1ccc(-c2ccc3c(c2)-c2ccc(S(=O)(=O)NCCCC)cc2S3(=O)=O)cc1	No
CC(C)CCCCCCCCCCCCC(=O)NCC(=O)NC1C(C)OC(Nc2[nH]cnc3ncnc2-3)C(O)C1O (stereo not given)	Yes
Nc1ncnc2c1ncn2C1OC(CSC(F)(F)F)C(O)C1O (stereo not given)	No
O=C(CC1(O)C(=O)Nc2ccc([N+](=O)[O-])cc21)c1ccncc1 (stereo not given)	No
